- System: Mycobacterium tuberculosis
- protocol-text: Antimycobacterial activity against Mycobacterium tuberculosis H37Rv after 6 days by microdilution resazurin assay
- Assay type: functional
- run-conditions: 144 h
Each item that follows carries a reported MIC95.

# molecule, recorded-result
measured = [
    ("Cc1c2c(c3cc(CC#N)oc3c1C)CCC(C)(C)O2", "> 10 µg/mL"),
    ("Cc1c2c(c3cc(-c4cccnc4)oc3c1C)C(=O)CC(C)(C)O2", "> 10 µg/mL"),
    ("Cc1c2c(c3cc(-c4ccc(C#N)nc4)oc3c1C)CCC(C)(C)O2", "> 10 µg/mL"),
]

Give me measured MIC95, please, for this molecule: Cc1c2c(c3cc(C4CCCO4)oc3c1C)CCC(C)(C)O2 (centres undefined) > 10 µg/mL
